Provide the recorded growth for the entries that follow.
System: MDA-MB-231 breast
ASSAY: NCI-60 one-dose screen, 48 h (100 = growth as untreated, 0 = no growth, -100 = all killed)
RUN_PARAMETERS: 10 µM unless noted
This is part of a sample that, as a whole, favours compounds with a hit. Of some 83,000 tested, about 20% had one in any assay.
Could you give me the number in %? Just the number is fine.

Looking up C/C(C=O)=C\c1ccc2c(c1)OCO2 , I see its growth listed as 121

Looking up COc1cc(/C=C2\CN(S(=O)(=O)c3ccc(C)cc3)C/C(=C\c3cc(CN4CCCCC4)c(O)c(OC)c3)C2=O)cc(CN2CCCCC2)c1O , I see its growth listed as -73.1

Looking up CCCCCCCCn1ccc2cc(NC(=O)Cn3cc(CN4CCC(C)CC4)nn3)ccc21 , I see its growth listed as 9.71

Looking up COc1cc(-c2nc(SCCC(C)C)nc(N3CCOCC3)c2C#N)cc(OC)c1OC , I see its growth listed as 68.5

Looking up Cn1cc(-c2nonc2-c2c[nH]c3ccccc23)c2ccccc21 , I see its growth listed as 0.833

Looking up CC(C)[C@@]12C[C@@H](OC(=O)COC(=O)c3ccccc3)[C@@](C)(O1)[C@@H]1CC[C@@H](C)[C@H]1[C@@H]2OC(=O)/C=C/c1ccccc1 , I see its growth listed as 86.3

Looking up Cc1cc2oc(=O)cc(CP(=O)(O)O)c2cc1O , I see its growth listed as 97.4

Looking up O=C1N[C@@H]2[C@@H](O)[C@@H](O)[C@H](O)C[C@H]2c2cc3c(c(O)c21)OCCO3 , I see its growth listed as -24.1

Looking up CC(C)c1ccc(NC(=O)Nc2ccc(NC(=O)c3ccccc3N)cc2)cc1 , I see its growth listed as 50.1

Looking up COc1cc2c3c(n(CCCCNCCCn4c5c(c6cc(OC)c(OC)cc6c4=O)C(=O)c4cc6c(cc4-5)OCO6)c(=O)c2cc1OC)-c1cc2c(cc1C3=O)OCO2 , I see its growth listed as 90.4

Looking up CCCCCCOC(=O)CC1=C(C)/C(=C/c2[nH]c(-c3ccc[nH]3)cc2OC)N=C1C , I see its growth listed as -50.7

Looking up C/C(=C(\c1ccc(OCCN2CCCCCC2)cc1)c1ccc(OC(=O)Cc2ccccc2)cc1)c1ccc(Cl)cc1 , I see its growth listed as 35.1

Looking up S=c1[nH]c2cc(Cl)ccc2o1 , I see its growth listed as 89

Looking up CCNCc1ccc(O)c2ncccc12 , I see its growth listed as 46.9

Looking up COc1ccc(C2C3=C(COC3=O)N(CCO)c3cc4c(cc32)OCCO4)cc1OC (centres undefined) , I see its growth listed as 56.8

Looking up CCN(CCO)CC(C)Nc1ccc([N+](=O)[O-])c2sc3ccccc3c(=O)c12 (centres undefined) , I see its growth listed as 48.8

Looking up COc1ncc2cc1NS(=O)(=O)c1cccc(c1)C(=O)NCC1=CC=C(S1)c1ncnc3c1SC2=C3C , I see its growth listed as 10.9

Looking up CC[C@H](Nc1nc(N)nc(C)c1C#N)c1nc2cccc(NCCCCCC(=O)NO)c2c(=O)n1-c1ccccc1 , I see its growth listed as 61.8

Looking up CC(C)c1ccc(C(=O)Nc2sc3cc(O)ccc3c2C#N)cc1 , I see its growth listed as 46.3
